Hi there, I'd appreciate the recorded log10 of EC50 for every entry that follows.
- target_of_assay: hGLP1R (Homo sapiens)
- Construct: expressed in transfected cells; host or cells: HEK-293 cells carrying a CRE-luciferase reporter gene
- Sequence (P43220 24-463): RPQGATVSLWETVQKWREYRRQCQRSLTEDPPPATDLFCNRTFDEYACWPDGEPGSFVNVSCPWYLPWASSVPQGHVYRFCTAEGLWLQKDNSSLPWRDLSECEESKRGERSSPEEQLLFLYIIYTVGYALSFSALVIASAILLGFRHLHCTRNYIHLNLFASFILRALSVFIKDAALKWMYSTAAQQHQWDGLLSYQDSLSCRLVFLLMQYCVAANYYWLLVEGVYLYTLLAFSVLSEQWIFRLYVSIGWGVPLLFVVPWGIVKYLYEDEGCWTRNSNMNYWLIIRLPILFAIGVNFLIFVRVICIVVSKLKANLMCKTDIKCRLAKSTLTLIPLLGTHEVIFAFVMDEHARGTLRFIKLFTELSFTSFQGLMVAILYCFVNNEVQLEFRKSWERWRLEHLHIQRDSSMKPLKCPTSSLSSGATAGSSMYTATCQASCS
- test_description: hGLP1R CreLuc reporter gene assay in 0.5% and 100% plasma
- Format: cell-based
- conditions: CreLuc reporter gene assay, 100% human plasma; read-out: hGLP1R 100% hP
Starred links: 1 amine or outer side, 2 acyl side, 3 side chain; linkers in the order of their positions; H or OH if unused. Non-standard residues stand in square brackets, D forms with d. Groups on a side chain read outwards from the residue. No end group written: not given here. *: point of attachment. C20 diacid = O=C(O)CCCCCCCCCCCCCCCCCCC(=O)*; C18 diacid = O=C(O)CCCCCCCCCCCCCCCCC(=O)*; γGlu = O=C(O)[C@H](CCC(=O)[*:2])N[*:1]; AEEA = NCCOCCOCC(=O)O; Aib = CC(C)(N)C(=O)O
Could you please treat all values as log10 of EC50 in nM?

Ask | # query: log10 of EC50 of entry Y[Aib]EGTFTSDYSI[Aib]LEKQAQ[Aib]AFVEWLIK([γGlu-γGlu-γGlu-γGlu-γGlu-C20 diacid])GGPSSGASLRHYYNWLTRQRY-NH2 [Compound 238]
Reply | 0.41

Ask | # query: log10 of EC50 of entry H-Y[Aib]EGTFTSDYSI[Aib]LEKQAQ[Aib]AFVEWLIK([AEEA-AEEA-γGlu-γGlu-γGlu-γGlu-C20 diacid])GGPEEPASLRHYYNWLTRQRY-NH2 [Compound 206]
Reply | 1.24

Ask | # query: log10 of EC50 of entry H-Y[Aib]EGTFTSDYSI[Aib]LEKQAQ[Aib]EFVEWLIK([γGlu-γGlu-γGlu-γGlu-C18 diacid])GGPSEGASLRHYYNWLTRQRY-NH2 [Compound 276]
Reply | 1.22

Ask | # query: log10 of EC50 of entry Y[Aib]EGTFTSDYSI[Aib]LEKQAQ[Aib]AFVQWLIK([AEEA-AEEA-γGlu-γGlu-γGlu-γGlu-γGlu-C18 diacid])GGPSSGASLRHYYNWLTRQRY-NH2 [Compound 167]
Reply | -0.09

Ask | # query: log10 of EC50 of entry H-Y[Aib]EGTFTSDYSI[Aib]LEKQAQ[Aib]AFVQWLIK([AEEA-AEEA-γGlu-γGlu-γGlu-γGlu-γGlu-C20 diacid])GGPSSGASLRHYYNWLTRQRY-NH2 [Compound 112]
Reply | 0.23
